Reported IC50 values for the following compounds.
target: Lck (Homo sapiens); construct: Kinases are expressed as either kinase domains or full length constructs; made in house; assay: Kinase inhibition assay (33P transfer), Lck; format: biochemical; conditions: Table 3; read-out: Lck-1
Sequence (P06239 whole entry, species assumed, the tested form may be a part): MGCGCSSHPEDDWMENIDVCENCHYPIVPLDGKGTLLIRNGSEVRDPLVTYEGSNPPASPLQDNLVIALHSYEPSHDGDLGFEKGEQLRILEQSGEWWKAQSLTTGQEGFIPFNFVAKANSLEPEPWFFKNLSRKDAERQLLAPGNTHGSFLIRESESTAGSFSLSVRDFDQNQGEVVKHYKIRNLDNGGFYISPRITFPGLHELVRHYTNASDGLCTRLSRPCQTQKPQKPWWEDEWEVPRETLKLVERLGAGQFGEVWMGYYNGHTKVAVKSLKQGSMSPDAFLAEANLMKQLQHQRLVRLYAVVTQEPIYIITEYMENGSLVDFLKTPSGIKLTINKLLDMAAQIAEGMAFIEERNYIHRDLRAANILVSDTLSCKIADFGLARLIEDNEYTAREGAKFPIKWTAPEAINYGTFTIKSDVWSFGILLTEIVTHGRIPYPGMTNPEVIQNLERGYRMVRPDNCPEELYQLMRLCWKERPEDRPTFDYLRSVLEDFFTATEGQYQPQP

Solved cases below.
Which value of IC50 has been reported for COc1cc(Nc2ncnc(N3c4ccc(F)cc4CCC3C)n2)cc(OC)c1OC (stereo not drawn) in the records?
0.94 to 5.64 µM

// IC50 lookup, key: O=c1[nH]c2ccccc2n1-c1ncnc(Nc2ccc(NS(=O)(=O)c3ccc([N+](=O)[O-])cc3)cc2)n1
> 8.92 µM

***
Record request: IC50 value, item COc1cc(Nc2ncnc(Nc3ccc(N4CCOCC4)cc3)n2)cc(OC)c1OC
5.47 to 7.98 µM

I am curious: what IC50 value has been reported for COc1cc(Nc2ncnc(N3CCN(C)CC3)n2)cc(OC)c1OC ?
> 12.5 µM

# get_value(readout='IC50', item= COc1cc(Nc2ncnc(-n3cc(OC(C)=O)c4ccccc43)n2)cc(OC)c1OC )
> 10.3 µM

Could you share which IC50 value was measured for COc1ccc(Nc2ncnc(-c3cccs3)n2)cc1OC ?
> 14.3 µM

Need IC50, item COc1ccc2c(ccn2-c2ncnc(Nc3cc(OC)c(OC)c(OC)c3)n2)c1
> 11 µM

Which IC50 value belongs to NC(=O)c1ccc(Nc2ncnc(-c3cccs3)n2)cc1 ?
> 15.1 µM

###

Target: Zap-70 (Homo sapiens)
Construct: Kinases are expressed as either kinase domains or full length constructs; made in house
Sequence (P43403 whole entry, species assumed, the tested form may be a part): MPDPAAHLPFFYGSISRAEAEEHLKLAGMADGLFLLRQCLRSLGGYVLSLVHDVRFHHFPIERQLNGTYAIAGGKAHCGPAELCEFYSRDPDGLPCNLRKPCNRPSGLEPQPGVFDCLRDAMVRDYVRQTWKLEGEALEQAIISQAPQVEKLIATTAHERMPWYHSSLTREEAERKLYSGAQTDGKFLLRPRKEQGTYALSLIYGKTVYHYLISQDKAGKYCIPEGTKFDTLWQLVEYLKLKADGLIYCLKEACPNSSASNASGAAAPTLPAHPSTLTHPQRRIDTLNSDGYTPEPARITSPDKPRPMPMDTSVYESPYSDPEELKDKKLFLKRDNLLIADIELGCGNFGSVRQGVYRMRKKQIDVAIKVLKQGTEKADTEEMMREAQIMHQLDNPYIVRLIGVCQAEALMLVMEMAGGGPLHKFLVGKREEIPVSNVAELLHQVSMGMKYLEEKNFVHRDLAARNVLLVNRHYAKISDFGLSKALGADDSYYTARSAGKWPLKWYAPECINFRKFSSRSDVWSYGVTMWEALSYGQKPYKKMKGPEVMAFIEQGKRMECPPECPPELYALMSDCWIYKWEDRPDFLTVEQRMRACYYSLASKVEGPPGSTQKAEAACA
Test: Kinase inhibition assay (33P transfer), Zap-70
Format: biochemical
Details: read-out: Zap-1
Text: The inhibitor compounds described herein are screened in the following manner. […] Kinases are expressed as either kinase domains or full length constructs fused to glutathione S-transferase (GST) or polyHistidine tagged fusion proteins in either E. colior Baculovirus-High Five expression systems. […]
pIC50: −log10 of the molar value.
Below: a set of entries, each annotated with reported pIC50.

Field request: pIC50 | item: COc1cc(Nc2ncnc(-n3c(NCc4ccc(OC(F)(F)F)cc4)nc4ccccc43)n2)cc(OC)c1OC
< 5.10

// query pIC50 value for entry c1ccc(CNc2nc3ccccc3n2-c2ncnc(Nc3cccc(Cc4nnn[nH]4)c3)n2)nc1
5.13 to 5.30

Record request: pIC50 value, item CN1CCN(Cc2cccc(Nc3ncnc(Nc4ccc5c(cnn5Cc5ccccc5)c4)n3)c2)CC1
< 5.05

// query pIC50 value for entry NC(=O)c1ccc(Nc2ncnc(-c3cccnc3NCc3cccs3)n2)cc1
< 4.95

Give the measured pIC50 of CN(c1cccc(Cl)c1)c1ncnc(N[C@@H]2CCN(Cc3ccccc3)C2)n1 .
< 4.94

Continuing:
# query: pIC50 of entry COc1cc(Nc2ncnc(Nc3n[nH]c(Nc4ccc(Cl)cc4)n3)n2)cc(OC)c1OC
5.13 to 5.29

Recorded pIC50 of COc1cc(Nc2ncnc(-n3c(Nc4cccc(F)c4)nc4ccccc43)n2)cc(OC)c1OC , please.
< 5.03

// lookup pIC50 for COc1cc(Nc2ncnc(-n3c(=O)[nH]c4ccccc43)n2)cc(OCCN2CCOCC2)c1OC
< 5.04

Fill blank: measured pIC50 of the molecule Nc1ncnc(Nc2ccc3c(cnn3Cc3ccccc3)c2)n1 is ____.
< 4.85

For the molecule COc1ccc(Cl)cc1Nc1ncnc(Nc2cc(OC)c(OC)c(OC)c2)n1 , what pIC50 is on record?
< 4.97

May I ask what pIC50 has been recorded for COc1cc(Nc2ncnc(Nc3ccc(Br)c4ccccc34)n2)cc(OC)c1OC ?
< 5.03

What measured pIC50 goes with CCOC(=O)C(Nc1nc2ccccc2n1-c1ncnc(Nc2cc(OC)c(OC)c(OC)c2)n1)c1ccccc1 (centres unmarked) ?
< 5.09

###

Listed here are compounds together with their documented IC50.
target: Kdr (Homo sapiens); construct: Kinases are expressed as either kinase domains or full length constructs; made in house; assay: Kinase inhibition assay (33P transfer), Kdr; assay type: biochemical; settings: read-out: KDR-1
Sequence (P35968 20-1356, species assumed): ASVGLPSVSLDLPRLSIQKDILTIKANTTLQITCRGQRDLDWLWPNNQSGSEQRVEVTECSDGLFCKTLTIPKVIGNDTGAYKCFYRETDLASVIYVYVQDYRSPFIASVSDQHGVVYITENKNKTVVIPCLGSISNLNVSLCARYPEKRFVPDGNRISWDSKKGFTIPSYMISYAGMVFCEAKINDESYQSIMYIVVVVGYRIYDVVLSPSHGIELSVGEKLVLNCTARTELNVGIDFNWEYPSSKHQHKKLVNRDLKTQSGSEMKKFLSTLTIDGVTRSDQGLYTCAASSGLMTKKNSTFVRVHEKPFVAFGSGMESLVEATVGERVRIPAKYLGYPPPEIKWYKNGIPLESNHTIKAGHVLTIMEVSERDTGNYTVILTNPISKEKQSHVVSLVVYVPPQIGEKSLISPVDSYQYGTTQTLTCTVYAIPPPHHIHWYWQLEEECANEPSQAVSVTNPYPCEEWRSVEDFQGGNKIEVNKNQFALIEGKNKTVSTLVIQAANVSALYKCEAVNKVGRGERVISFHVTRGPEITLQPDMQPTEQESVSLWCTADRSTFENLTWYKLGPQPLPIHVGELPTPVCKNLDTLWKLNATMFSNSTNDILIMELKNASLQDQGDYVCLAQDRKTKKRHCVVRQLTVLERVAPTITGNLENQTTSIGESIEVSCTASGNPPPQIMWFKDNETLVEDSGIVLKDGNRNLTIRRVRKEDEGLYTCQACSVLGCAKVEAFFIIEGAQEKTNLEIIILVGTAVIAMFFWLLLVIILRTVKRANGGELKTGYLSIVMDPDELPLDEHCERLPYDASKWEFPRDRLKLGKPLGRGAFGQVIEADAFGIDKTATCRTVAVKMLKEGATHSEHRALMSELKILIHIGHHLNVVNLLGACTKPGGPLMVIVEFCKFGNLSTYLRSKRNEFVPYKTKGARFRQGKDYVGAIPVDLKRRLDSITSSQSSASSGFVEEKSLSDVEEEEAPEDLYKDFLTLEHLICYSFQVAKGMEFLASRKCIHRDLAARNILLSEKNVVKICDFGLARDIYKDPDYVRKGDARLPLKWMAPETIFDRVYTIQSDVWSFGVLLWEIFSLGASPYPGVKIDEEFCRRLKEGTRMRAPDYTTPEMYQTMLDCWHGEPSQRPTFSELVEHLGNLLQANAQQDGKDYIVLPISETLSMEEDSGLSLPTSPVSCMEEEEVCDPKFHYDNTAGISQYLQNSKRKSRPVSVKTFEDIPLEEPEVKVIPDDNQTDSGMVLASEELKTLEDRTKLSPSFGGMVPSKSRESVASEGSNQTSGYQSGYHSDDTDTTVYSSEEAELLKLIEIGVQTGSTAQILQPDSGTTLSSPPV

Record request: IC50 value, item CN(c1cccc(Cl)c1)c1ncnc(-n2c(N)nc3ccccc32)n1
1.14 to 6.82 µM

---
Requested field: IC50. Item: COC(=O)c1ccc(-c2cc(Nc3ncnc(Nc4ccc(CO)cc4)n3)[nH]n2)cc1
8.38 to 10.8 µM

Sample COc1cc(Nc2ncnc(-n3c(NCc4cccc([N+](=O)[O-])c4)nc4ccccc43)n2)cc(OC)c1OC — what was its IC50?
< 0.757 µM

Can you share its IC50? I mean this compound: O=c1[nH]c2ccccc2n1-c1ncnc(Nc2nccc3ccccc23)n1
6.75 to 9.85 µM

###

Below, each entry is listed alongside its reported IC50.
biological target: EGFR (Homo sapiens); construct: Kinases are expressed as either kinase domains or full length constructs; made in house; test: Kinase inhibition assay (33P transfer), EGFR; format: biochemical; details: Table 2, kinase inhibition class; read-out: EGFR-1

Examples with their reported IC50 follow.
For the molecule COc1cc(Nc2ncnc(-n3ccc4ccc(F)cc43)n2)cc(OC)c1OC , what IC50 is on record?
> 11.4 µM

Data request, read-out IC50, for COc1ccc(Nc2ncnc(-n3c(N)nc4ccccc43)n2)cc1OC
> 12.4 µM

Recorded IC50 of CC(C)(C)c1ccc(Nc2ncnc(-n3c(N)nc4ccccc43)n2)cc1 , please.
> 12.5 µM

Others:
Form field: reported IC50 of NS(=O)(=O)c1ccc(CNc2ncnc(-n3c(=O)[nH]c4ccccc43)n2)cc1
> 11.3 µM

Entry COc1cc(Nc2ncnc(Nc3cccc4ccccc34)n2)cc(OC)c1OC has what IC50?
< 0.991 µM

###

target: Itk (Homo sapiens, UniProt Q08881); construct: Kinases are expressed as either kinase domains or full length constructs; made in house; test: Kinase inhibition assay (33P transfer), Itk; type: biochemical; details: Table 3, class symbols; read-out: Itk-1
Sequence (Q08881 whole entry, species assumed, the tested form may be a part): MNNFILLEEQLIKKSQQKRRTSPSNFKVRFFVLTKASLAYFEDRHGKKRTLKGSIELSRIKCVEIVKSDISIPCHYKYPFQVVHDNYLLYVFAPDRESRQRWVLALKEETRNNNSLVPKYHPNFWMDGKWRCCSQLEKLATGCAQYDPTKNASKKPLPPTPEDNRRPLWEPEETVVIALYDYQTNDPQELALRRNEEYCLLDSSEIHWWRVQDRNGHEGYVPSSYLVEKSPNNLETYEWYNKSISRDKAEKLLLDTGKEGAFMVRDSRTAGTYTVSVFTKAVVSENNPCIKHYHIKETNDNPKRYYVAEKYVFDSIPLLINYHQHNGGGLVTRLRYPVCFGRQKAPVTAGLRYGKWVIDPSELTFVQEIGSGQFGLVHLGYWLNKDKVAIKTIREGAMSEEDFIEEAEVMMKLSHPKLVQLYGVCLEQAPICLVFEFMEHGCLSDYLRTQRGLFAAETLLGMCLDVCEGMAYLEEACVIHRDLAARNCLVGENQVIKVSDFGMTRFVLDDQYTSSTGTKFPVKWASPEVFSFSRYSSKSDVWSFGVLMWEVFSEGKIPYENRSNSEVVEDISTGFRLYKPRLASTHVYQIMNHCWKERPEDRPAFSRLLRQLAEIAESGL
Recorded IC50, one value per entry.

Take a look at these entries with their results.
// lookup IC50 for CCOc1ccc(Nc2ncnc(N(C)c3cccc(Cl)c3)n2)cc1OCC
> 11.3 µM

What measured IC50 goes with COc1cc(Nc2ncnc(-c3cccnc3NC3CCCCC3)n2)cc(OC)c1OC ?
> 10.3 µM

Return reported IC50; argument: COc1ccc(Nc2ncnc(Nc3cccc(C#N)c3)n2)cc1OC
6.89 to 10 µM

Which IC50 value belongs to COc1cc(Nc2ncnc(Nc3cccc(Cl)c3)n2)cc(OC)c1 ?
9.78 to 12.6 µM

We now examine a further compound.
Fill in: IC50 of COc1cc(Nc2ncnc(Nc3ccc(OCCO)cc3)n2)cc(OC)c1OC is ___
> 10.9 µM

###

target: PDGFRB (Homo sapiens); construct: Kinases are expressed as either kinase domains or full length constructs; made in house; assay: Kinase inhibition assay (33P transfer), PDGFRB; type: biochemical; conditions: read-out: PDGFRB-1
Sequence (P09619 33-1106, species assumed): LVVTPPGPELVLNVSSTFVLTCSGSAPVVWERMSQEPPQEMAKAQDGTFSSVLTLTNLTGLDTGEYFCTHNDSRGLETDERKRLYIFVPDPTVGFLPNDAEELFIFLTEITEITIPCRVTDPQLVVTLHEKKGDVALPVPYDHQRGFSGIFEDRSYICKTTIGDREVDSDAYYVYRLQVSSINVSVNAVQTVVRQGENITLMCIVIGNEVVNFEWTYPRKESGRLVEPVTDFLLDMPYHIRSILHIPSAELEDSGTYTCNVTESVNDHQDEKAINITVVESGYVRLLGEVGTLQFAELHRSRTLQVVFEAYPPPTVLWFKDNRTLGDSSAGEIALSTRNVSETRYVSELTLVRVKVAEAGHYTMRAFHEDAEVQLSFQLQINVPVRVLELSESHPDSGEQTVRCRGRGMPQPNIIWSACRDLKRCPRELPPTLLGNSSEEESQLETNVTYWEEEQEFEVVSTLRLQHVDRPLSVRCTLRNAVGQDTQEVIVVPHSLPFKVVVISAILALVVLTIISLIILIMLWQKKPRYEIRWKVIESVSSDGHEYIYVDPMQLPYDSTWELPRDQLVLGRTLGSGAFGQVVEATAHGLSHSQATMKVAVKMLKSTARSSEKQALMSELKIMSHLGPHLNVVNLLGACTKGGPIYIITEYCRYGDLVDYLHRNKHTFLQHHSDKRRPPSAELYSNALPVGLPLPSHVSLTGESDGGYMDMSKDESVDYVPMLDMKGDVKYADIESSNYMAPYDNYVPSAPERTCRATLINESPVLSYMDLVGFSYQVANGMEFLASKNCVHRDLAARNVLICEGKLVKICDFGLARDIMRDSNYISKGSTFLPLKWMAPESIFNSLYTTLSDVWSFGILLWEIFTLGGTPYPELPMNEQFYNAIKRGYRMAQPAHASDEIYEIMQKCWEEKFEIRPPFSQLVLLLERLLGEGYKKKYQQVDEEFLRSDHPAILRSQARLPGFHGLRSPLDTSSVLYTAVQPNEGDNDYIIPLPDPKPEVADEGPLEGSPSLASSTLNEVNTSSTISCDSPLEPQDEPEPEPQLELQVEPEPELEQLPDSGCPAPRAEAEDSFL
Metric: IC50

Param readout = IC50; param system = PDGFRB (Homo sapiens); param query = Brc1cccc(Nc2ncnc(Nc3cccc(Cn4ccnn4)c3)n2)c1 ; response: value
8.27 to 10.6 µM

Others:
Fill in the recorded IC50 for this compound, with PDGFRB (Homo sapiens) as test system: COc1ccc(Nc2ncnc(NCCNC(C)=O)n2)cc1OC
> 13.5 µM

Form entry - test system: PDGFRB (Homo sapiens); read-out: IC50; compound: CNS(=O)(=O)Cc1ccc(Nc2ncnc(Nc3cc(-c4ccc(C(=O)OC)cc4)n[nH]3)n2)cc1
4.85 to 7.08 µM

Param readout= IC50; system= PDGFRB (Homo sapiens); entry= CCOc1cccc(Nc2ncnc(Nc3cc(-c4ccc(C(=O)OC)cc4)n[nH]3)n2)c1 ; returns value.
> 10.4 µM

###

molecular target: IGFR-1 (Homo sapiens, UniProt P08069); construct: Kinases are expressed as either kinase domains or full length constructs; made in house; assay: Kinase inhibition assay (33P transfer), IGFR-1; type: biochemical; conditions: Table 2, kinase inhibition class
Recorded IC50, one value per entry.

Check out these entries, answers already filled in.
What value of measured IC50 is listed for COc1cc(Nc2ncnc(-n3cc(C)c4ccccc43)n2)cc(OC)c1OC ?
> 11.5 µM

Which measured IC50 value corresponds to COc1ccc(Nc2ncnc(-c3cccs3)n2)cc1OC ?
> 14.3 µM

Can you look up the measured IC50 of CC(C)(C)OC(=O)Nc1ccc(Nc2ncnc(-c3ccccc3)n2)cc1 for me?
6.6 to 9.63 µM

Report IC50 for COc1cc(Nc2ncnc(N(CC(=O)O)c3ccc4c(c3)OCO4)n2)cc(OC)c1OC please.
> 9.88 µM

// IC50 lookup, key: COc1cc(Nc2ncnc(N3CCC(O)CC3)n2)cc(OC)c1OC
> 12.5 µM

// IC50 lookup, key: COc1cc(Nc2ncnc(N3c4ccc(F)cc4CCC3C)n2)cc(OC)c1OC (stereo not drawn)
5.64 to 8.23 µM

// lookup IC50 for COc1cc(Nc2ncnc(N3CCc4ccccc43)n2)cc(OC)c1OC
> 11.9 µM

Could you share which IC50 value was measured for COc1cc(Nc2ncnc(Nc3ccc(NC(=O)OC(C)(C)C)cc3)n2)cc(OC)c1OC ?
> 9.6 µM

Fill blank: measured IC50 of the compound c1csc(-c2ncnc(Nc3ccc(N4CCOCC4)cc3)n2)c1 is ____.
> 13.3 µM

For the compound COc1cc(Nc2ncnc(Nc3cccc4ccccc34)n2)cc(OC)c1OC , what IC50 is on record?
> 11.2 µM

Continuing:
So what does the record say about IC50 for COc1cc(Nc2ncnc(-n3c(NCCCCO)nc4ccccc43)n2)cc(OC)c1OC ?
> 9.67 µM

Could you share which IC50 value was measured for CCOc1ccc(Nc2ncnc(Nc3ccc(C)c(O)c3)n2)cc1OCC ?
> 11.8 µM

Quick one: IC50 for COc1cc(Nc2ncnc(Nc3cc(-c4ccccc4)n[nH]3)n2)cc(OC)c1OC ?
< 0.954 µM

What does the record list as IC50 for COc1cc(Nc2ncnc(-c3ccccc3)n2)cc(OC)c1OC ?
> 13.3 µM

Given the compound COc1cc(Nc2ncnc(Nc3cc(C)nn3C)n2)cc(OC)c1OC , what is its reported IC50?
> 12.1 µM

Please look up its IC50: COc1cc(Nc2ncnc(Nc3ccc(C)cc3)n2)cc(OC)c1OC
1.09 to 6.53 µM

Given C=CCN(c1ccc(Cl)cc1)c1ncnc(Nc2cc(OC)c(OC)c(OC)c2)n1 , state its recorded IC50.
5.61 to 8.18 µM

For COc1cc(Nc2ncnc(Nc3cccc(Oc4ccccc4)c3)n2)cc(OC)c1OC , what is its reported IC50?
> 10.1 µM
